# Test system: Saccharomyces cerevisiae
# measurement notes: Growth inhibition in liquid medium (Sabouraud broth)
# Format: cell-based
# condition context: Sabouraud broth, 28° C., 18 hours; read-out: IC 50 (growth-inhibiting concentration of 50%)
pIC50: −log10 of the molar value.
observable: pIC50

[[record]]
compound = "CC1OC[C@@H](O)[C@H]([C@H](O)C(=O)CN[C@@H]2[C@H](O)[C@H](O[C@H]3/C=C/C=C/C=C/C=C/C=C/C=C/C=C/[C@H](C)[C@@H](O)[C@@H](C)[C@H](C)OC(=O)C[C@H](O)C[C@H](O)CC[C@@H](O)[C@H](O)C[C@H](O)C[C@]4(O)C[C@H](O)[C@@H](C(=O)O)[C@H](C3)O4)O[C@H](C)[C@H]2O)O1 (stereo partly shown)"
observed_result = 5.92

